Recorded IC50 values for a group of molecules are listed next.
System: P. berghei ookinete formation
Experiment: P. berghei ookinete development assay
Format: cell-based, Plasmodium berghei
Conditions: Plasmodium berghei, read-out: IC50 ookinete formation
Protocol: Compounds and P. berghei gametocyte-infected blood were dispensed in a 96-well plate containing ookinete medium. After 24 h at 19°C, Giemsa-stained ookinetes were counted under the microscope (×40) as previously described,[28]. Figure 3 The transmission-blocking potential of selected antimalarials in three bioassays that cover different phases of Plasmodium vector stage development. […]
Enter your answer as a number in µM; do not include the unit.

>>> endpoint_value("C[C@@H]1C[C@@H]([C@H](O)CC2CC(=O)NC(=O)C2)C(=O)[C@@H](C)C1 [cycloheximide]")
0.025

Shifting focus to the molecule that follows.
State its IC50: C=C(NC(=O)C(=C)NC(=O)c1csc(C2=N[C@@H]3c4csc(n4)[C@H]4NC(=O)c5csc(n5)[C@H]([C@](C)(O)[C@@H](C)O)NC(=O)[C@H]5CSC(=N5)/C(=C/C)NC(=O)[C@H]([C@@H](C)O)NC(=O)c5csc(n5)[C@]3(CC2)NC(=O)[C@H](C)NC(=O)C(=C)NC(=O)[C@H](C)NC(=O)[C@H]([C@@H](C)CC)N[C@@H]2C=Cc3c([C@H](C)O)cc(nc3[C@H]2O)C(=O)O[C@@H]4C)n1)C(N)=O [thiostrepton] 8

###

Tested on: P. falciparum mature gametocytes / male gamete exflagellation
Test: P. falciparum exflagellation assay
Assay type: cell-based, Plasmodium falciparum
Conditions: Plasmodium falciparum, read-out: inhibition of exflagellation; 10 µM, 24 h exposure of mature gametocytes
Recorded inhibition at 10 µM values for a group of compounds are listed next.

>>> endpoint_value("CCN(CC)CCCC(C)Nc1cc(OC)cc2cccnc12 (stereo not drawn)")
"> 70%"
>>> endpoint_value("COc1cc(N[C@H](C)CCCN)c2nccc(C)c2c1Oc1ccc(Cl)c(Cl)c1 [NPC-1161B]")
"> 70%"
>>> endpoint_value("Cc1cc(NS(=O)(=O)c2ccc(N)cc2)no1")
"> 80%"
>>> endpoint_value("CCc1nc(N)nc(N)c1-c1ccc(Cl)cc1")
"> 80%"
>>> endpoint_value("OC(c1cc(C(F)(F)F)nc2c(C(F)(F)F)cccc12)C1CCCCN1 (stereo not drawn) [mefloquine (+RS)]")
"> 80%"

State its inhibition at 10 µM: `COc1ccc2nc3cc(Cl)ccc3c(Nc3cc(CN4CCCC4)c(O)c(CN4CCCC4)c3)c2n1` > 80%

###

System: HepG2 cells
Assay: Growth retardation of HepG2 cells
Conditions: IC50 HepG2 compared to IC50 parasite
Recorded CI (cytotoxicity index) values for a group of molecules are listed next.
Lab note: jot the number down without any unit.

Below, each entry is followed by its recorded CI (cytotoxicity index) result.
>>> endpoint_value("C=C(NC(=O)C(=C)NC(=O)c1csc(C2=N[C@@H]3c4csc(n4)[C@H]4NC(=O)c5csc(n5)[C@H]([C@](C)(O)[C@@H](C)O)NC(=O)[C@H]5CSC(=N5)/C(=C/C)NC(=O)[C@H]([C@@H](C)O)NC(=O)c5csc(n5)[C@]3(CC2)NC(=O)[C@H](C)NC(=O)C(=C)NC(=O)[C@H](C)NC(=O)[C@H]([C@@H](C)CC)N[C@@H]2C=Cc3c([C@H](C)O)cc(nc3[C@H]2O)C(=O)O[C@@H]4C)n1)C(N)=O [thiostrepton]")
1.0
>>> endpoint_value("CC(C)(N)CNC(=O)C[C@H]1CC[C@]2(CC1)OO[C@]1(O2)C2CC3CC(C2)CC1C3 [OZ277]")
4.38

State its CI (cytotoxicity index): COc1cc(N[C@H](C)CCCN)c2nccc(C)c2c1Oc1ccc(Cl)c(Cl)c1 [NPC-1161B] 1.17

State its CI (cytotoxicity index): C[C@@H]1C[C@@H]([C@H](O)CC2CC(=O)NC(=O)C2)C(=O)[C@@H](C)C1 [cycloheximide] 6.13

State its CI (cytotoxicity index): [H]/N=C(\N/C(=N/[H])Nc1ccc(Cl)cc1)NC(C)C [proguanil] 1.31
